assay: chemical genetic growth profiling, strain panel (AID 1159580);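 note: tested at 20 µM; growth read once vehicle control cultures reached saturation at 30 °C; 1 = growth at the plate median or of vehicle wells; lower values mean less growth of the strain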; conditions: S. cerevisiae deletion strains, growth OD, locus YKR091W, strain srl3, active compounds read low
Out of some 5,500 compounds screened, about 2,000 (36%) were called active. Another 18% or so got no clear call; they are omitted. The list shows a part of the results.
Assay readout: normalized growth
Keep it simple and answer with nothing but the number.

Some solved entries appear below for comparison.
>  <Molecule>
CCOC(=O)[C@H](CCc1ccccc1)N[C@@H](C)C(=O)N1[C@H](C(=O)O)C[C@@H]2CCC[C@@H]21

>  <Quantitative result>
0.985

$$$$
>  <Molecule>
CC(=O)OC1CCC2(C)C(=CC=C3C2CCC2(C)C3CCC2C(C)/C=C/C(C)C(C)C)C1(C)C (stereo not given)

>  <Quantitative result>
1.03

$$$$
>  <Molecule>
CN1C(C(=O)Nc2ccccn2)=C(O)c2ccccc2S1(=O)=O

>  <Quantitative result>
0.968

$$$$
>  <Molecule>
CO/N=C(\C(=O)NC1C(=O)N2C(C(=O)O)=C(COC(N)=O)CSC12)c1ccco1 (stereo not given)

>  <Quantitative result>
0.98

$$$$

Lab book: normalized growth of `CC(C)[C@@H]1CC[C@@H](C)C[C@H]1O` noted as 0.974

Form: molecule = `O=c1cc(-c2ccccc2O)oc2cc(O)ccc12` ; normalized growth = 0.982

GET /value?item= `CC1(C)O[C@H]2[C@H](O)C[C@](O)(C(N)=O)C[C@H]2O1` &field=normalized growth returns 1.02

Entry `COc1ccc([C@H]2Oc3cc(OC)cc(OC)c3C[C@H]2O)cc1` — recorded normalized growth = 1

Briefly, normalized growth measured for `COc1ccc2c(c1)O[C@H]1c3ccc(OC)cc3OC[C@@H]21` : 1.03

According to the records, this molecule `COc1cc([C@@H]2c3cc4c(c(O)c3C[C@H]3COC(=O)[C@@H]32)OCO4)cc(OC)c1OC` displays normalized growth of 0.995

Values were extracted from PubChem BioAssay AID1159580.
